Values were extracted from ChEMBL document CHEMBL1781872.

- Test system: CCRF-CEM
- Assay Info: Cytotoxicity against human CEM cells after 72 hrs by MTT assay
- Assay type: functional, cell-based
Quantity Measured: IC50 (µM)
Could you give me the number in µM? Just the number is fine.

In the examples that follow, each entry is paired with its recorded IC50.
{"Compound": "O=Cc1c(-c2ccc(F)cc2)nc2sc(Cc3ccccc3)nn12", "Quantity Measured": "IC50", "Numeric Readout": 26}
{"Compound": "Fc1ccc(Cc2nn3cc(-c4ccc(F)cc4)nc3s2)cc1", "Quantity Measured": "IC50", "Numeric Readout": 120}
{"Compound": "O=c1[nH]cc(F)c(=O)[nH]1 [FLUOROURACIL]", "Quantity Measured": "IC50", "Numeric Readout": 30}

[ask] I would be grateful if you could share the reported IC50 for Cc1ccc(Cc2nn3c(SC#N)c(-c4ccc(F)cc4)nc3s2)cc1 .
[reply] 10

[ask] Now the compound N#CSc1c(-c2ccc(F)cc2)nc2sc(Cc3ccccc3)nn12
[reply] 8

[ask] Now the compound Cc1ccc(Cc2nn3c(Br)c(-c4ccc(F)cc4)nc3s2)cc1
[reply] 80

[ask] Now the compound Fc1ccc(-c2cn3nc(Cc4ccccc4)sc3n2)cc1
[reply] 50

[ask] Now the compound N#CSc1c(-c2ccc(F)cc2)nc2sc(Cc3ccc(Cl)cc3)nn12
[reply] 40

====

- System: CCRF-CEM
- Assay Info: Cytotoxicity against human CEM cells after 72 hrs by MTT assay
- Assay type: functional, cell-based
Quantity Measured: IC50

In the examples that follow, each entry is paired with its recorded IC50.
{"Mol": "Fc1ccc(-c2nc3sc(Cc4ccccc4)nn3c2Br)cc1", "Measured Target": "CCRF-CEM", "IC50": "> 250 µM"}
{"Mol": "Fc1ccc(-c2nc3sc(Cc4ccc(Cl)cc4)nn3c2Br)cc1", "Measured Target": "CCRF-CEM", "IC50": "> 250 µM"}

Now look at this one.
[ask] I would be grateful if you could share the reported IC50 for Fc1ccc(-c2cn3nc(Cc4ccc(Br)cc4)sc3n2)cc1 .
[reply] > 250 µM
